Origin of the recorded values: the supplement of paper PMC10646978

tested on: RAW-Dual (murine macrophage reporter line); assay: NF-kB reporter (SEAP) activity fold change vs agonist alone; higher = enhanced NF-kB activity; settings: modulator concentration 10 µM; agonist: CpG ODN 1826 0.5 ug/mL
NF-kB reporter reference

querySmiles	NF-kB reporter
COc1ccc(NC(=O)CN2C(=O)c3cccc4cccc(c34)C2=O)cc1	0.966
CCCCn1c(CNC(=O)c2cccs2)nc2ccccc21	0.926
OCCN(CCO)c1nc(N2CCCCC2)c2nc(N(CCO)CCO)nc(N3CCCCC3)c2n1	1.58

* * *

system: RAW-Dual (murine macrophage reporter line); assay: NF-kB reporter (SEAP) activity fold change vs agonist alone; higher = enhanced NF-kB activity; settings: modulator concentration 10 µM; agonist: CpG ODN 1826 0.5 ug/mL
Criterion: NF-kB reporter meeting or surpassing 0.9. Met: criterion met. Not met: criterion not met.

molecule	studySystem	assignedCategory
CCOC(=O)C(CCc1ccccc1)NC(C)C(=O)N1C(C(=O)O)CC2CCCC21 (centres undefined)	RAW-Dual (murine macrophage reporter line)	criterion met
CC1(C)Cc2ccccc2C(=C(C#N)C#N)N1	RAW-Dual (murine macrophage reporter line)	criterion met
O=c1c(CN2CCC(O)(c3ccc(Br)cc3)CC2)coc2ccccc12	RAW-Dual (murine macrophage reporter line)	criterion not met
Cc1cccc(N=c2scc(-c3ccc([N+](=O)[O-])cc3)n2-c2cccc(C)c2C)c1C	RAW-Dual (murine macrophage reporter line)	criterion not met
N=C(N)c1ccc(OCCCCCOc2ccc(C(=N)N)cc2)cc1.O=S(=O)(O)CCO.O=S(=O)(O)CCO	RAW-Dual (murine macrophage reporter line)	criterion not met
O=C(C=Cc1ccc(-c2cccc(Cl)c2)o1)c1ccc(Cl)cc1	RAW-Dual (murine macrophage reporter line)	criterion not met
FC(F)(F)c1ccc(/C=C/c2nc(COc3ccc(CCCCn4ccnn4)cc3)co2)cc1	RAW-Dual (murine macrophage reporter line)	criterion met
Cc1ccc(S(=O)(=O)N2CCC2)cc1	RAW-Dual (murine macrophage reporter line)	criterion met
CC(=O)NC(Cc1c[nH]c2ccccc12)C(=O)O (centres undefined)	RAW-Dual (murine macrophage reporter line)	criterion met
CC(NC(=O)C1CCN(S(=O)(=O)N2CCCC2)CC1)c1ccc(F)cc1 (centres undefined)	RAW-Dual (murine macrophage reporter line)	criterion met
CC1(COc2ccc3c(c2)ncn3-c2ccc3cccc(N4CCC(N)CC4)c3n2)COC1	RAW-Dual (murine macrophage reporter line)	criterion not met
Cl.N=C(N)NC(=O)c1nc(Cl)c(N)nc1N.O.O	RAW-Dual (murine macrophage reporter line)	criterion not met
Nc1nc(Cl)nc2c1ncn2[C@H]1C[C@H](O)[C@@H](CO)O1	RAW-Dual (murine macrophage reporter line)	criterion met

* * *

test system: RAW-Dual (murine macrophage reporter line); experiment: NF-kB reporter (SEAP) activity fold change vs agonist alone; higher = enhanced NF-kB activity; conditions: modulator concentration 10 µM; agonist: MPLA […]
NF-kB reporter reference
resultType: NF-kB reporter

molecule	number
c1cc2c3c(cccc3c1)-c1nc3ccccc3nc1-2	1.02
Cc1oncc1C(=O)Nc1ccc(C(F)(F)F)cc1	1.09
CC(=O)Nc1cc2nc3ccccc3nc2cc1NC(C)=O	0.955
COc1ccc(CCN(C)CCCC(C#N)(c2ccc(OC)c(OC)c2)C(C)C)cc1OC.Cl (centres undefined)	1.12
Oc1cccc(C=Nc2ccc(N=Cc3cccc(O)c3O)cc2)c1O	0.783
CC1(C)Cc2ccccc2C(=C(C#N)C#N)N1	1.06
COc1cc2c(Nc3ccc(Br)cc3F)ncnc2cc1OCC1CCN(C)CC1	1.11
O=C(CC1(Cc2ccc(I)cc2)C(=O)c2ccccc2C1=O)c1ccccc1	1.02
NC(=NOC(=O)c1ccc2nsnc2c1)c1ncon1	0.905
